# target_entity: T1, insulin-like growth factor II (IGF-II), amino acids 1-67 (human, UniProt P01344 25-91)
# T1 construct: recombinant; also called IGF-II (67aa); IGF2
# protocol_details: competition SPR (BIACORE T100), affinity in solution, free ligand read on huIR-A ECD; measurement 1
Entries annotated with measured Kd
Provide the reading as a plain figure in nM.

M0070-H08 Fab (Fab, V domains shown, soluble Fab (sFab); also called R0032-A07) VH: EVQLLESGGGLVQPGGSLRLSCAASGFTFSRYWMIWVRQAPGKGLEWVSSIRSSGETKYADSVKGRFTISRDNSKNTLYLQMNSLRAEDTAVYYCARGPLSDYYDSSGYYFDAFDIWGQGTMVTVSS VL: DIQMTQSPSSLSASAGDRVTITCRASQSISSYLNWYQQKPGKAPNLLIYTTSNLQGGVPSRFSGSGSGTDFTLTISSLQPEDFATYYCQQGYSFPLTFGGGTKVEIKR    3.24

Now take the following binder into account.
input: What does the record list as Kd for M0072-C06 Fab (Fab, V domains shown, soluble Fab (sFab); also called R0032-A09) VH: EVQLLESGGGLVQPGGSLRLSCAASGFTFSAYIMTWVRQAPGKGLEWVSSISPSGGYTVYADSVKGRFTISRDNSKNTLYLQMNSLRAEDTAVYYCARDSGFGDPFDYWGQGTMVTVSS VL: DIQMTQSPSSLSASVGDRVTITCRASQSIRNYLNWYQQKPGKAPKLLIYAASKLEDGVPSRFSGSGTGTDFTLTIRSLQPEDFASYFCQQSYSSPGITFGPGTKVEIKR ?
output: 1.64
